Origin of measurements: ChEMBL document CHEMBL2163341

Target: Bombesin receptor subtype-3 (Mus musculus)
Sequence (O54798 whole entry): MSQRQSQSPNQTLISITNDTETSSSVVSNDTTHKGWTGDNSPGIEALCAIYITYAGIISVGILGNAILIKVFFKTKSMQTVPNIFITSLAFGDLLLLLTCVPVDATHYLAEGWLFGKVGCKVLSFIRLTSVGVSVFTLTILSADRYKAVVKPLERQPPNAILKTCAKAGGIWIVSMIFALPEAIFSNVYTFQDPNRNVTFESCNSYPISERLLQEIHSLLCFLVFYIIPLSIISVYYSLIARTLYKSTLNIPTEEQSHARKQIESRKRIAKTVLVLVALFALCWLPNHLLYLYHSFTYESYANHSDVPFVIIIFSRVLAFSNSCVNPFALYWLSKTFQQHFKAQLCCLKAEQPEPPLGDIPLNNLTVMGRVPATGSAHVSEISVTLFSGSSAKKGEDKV
Experiment: Agonist activity at mouse BRS-3 expressed in HEK293AEQ cells assessed as bioluminescence for 10 mins by aequorin bioluminescence assay
assay-endpoint: EC50 (nM)
One number for each entry, in nM.

// each compound listed below needs its EC50
1. CC(C)(C)c1ccc(S(=O)(=O)N2Cc3ccc(C(F)(F)F)nc3Nc3cccc(C4CCNCC4)c32)cc1
2. C[C@@H](O)c1nc(-c2cccc3c2N(S(=O)(=O)c2ccc(C(C)(C)C)cc2)Cc2ccc(C(F)(F)F)nc2N3)no1

1. 115
2. 134

----------
Assay: Oral bioavailability in rhesus monkey at 1 mg/kg
Format: ADME, organism-based, Macaca mulatta
Settings: in vivo
assay-endpoint: bioavailability (%)
One number for each entry, in %.

Form field: reported bioavailability of `CC(C)(O)c1nc(-c2cccc3c2N(S(=O)(=O)c2ccc(OC(F)(F)F)cc2)Cc2ccc(C(F)(F)F)nc2N3)no1` 58

----------
Please go through the items and note down their Activity.
Biological target: Nuclear receptor subfamily 1 group I member 2 (Homo sapiens, UniProt O75469)
Sequence (O75469 whole entry): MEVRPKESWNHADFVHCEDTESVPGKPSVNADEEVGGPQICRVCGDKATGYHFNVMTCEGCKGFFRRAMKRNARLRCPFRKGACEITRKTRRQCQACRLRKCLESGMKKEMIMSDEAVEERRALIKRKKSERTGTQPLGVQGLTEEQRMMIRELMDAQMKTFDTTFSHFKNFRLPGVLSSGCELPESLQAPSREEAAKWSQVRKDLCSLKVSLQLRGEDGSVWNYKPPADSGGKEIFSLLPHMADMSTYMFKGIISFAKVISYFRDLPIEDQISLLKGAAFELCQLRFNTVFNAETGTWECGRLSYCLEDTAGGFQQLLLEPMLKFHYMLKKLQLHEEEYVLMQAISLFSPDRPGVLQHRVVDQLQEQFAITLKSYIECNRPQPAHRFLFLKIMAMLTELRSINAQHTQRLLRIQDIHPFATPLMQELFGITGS
Assay: Activation of PXR at 10 uM
Record the result as number plus unit.

Worked examples follow.
Nuclear receptor subfamily 1 group I member 2 (Homo sapiens, UniProt O75469) / Activity / `CC(C)(O)c1nc(-c2cccc3c2N(S(=O)(=O)c2ccc(OC(F)(F)F)cc2)Cc2ccc(C(F)(F)F)nc2N3)no1` : value? 17%

Param item: `CC(C)(C)c1ccc(S(=O)(=O)N2Cc3ccc(C(F)(F)F)nc3Nc3cccc(C4CCNCC4)c32)cc1` 37%

Param item: `Cn1cc(-c2cccc3c2N(S(=O)(=O)c2ccc(C(C)(C)C)cc2)Cc2ccc(C(F)(F)F)nc2N3)cn1` 50%

Param item: `CC(C)(C)c1ccc(S(=O)(=O)N2Cc3ccc(C(F)(F)F)nc3Nc3cccc(-c4noc(CO)n4)c32)cc1` 78%

Param item: `CC(C)(C)c1ccc(S(=O)(=O)N2Cc3ccc(C(F)(F)F)nc3Nc3cccc(-c4ncon4)c32)cc1` 53%

// each compound listed below needs its Activity
1. C[C@@H](O)c1nc(-c2cccc3c2N(S(=O)(=O)c2ccc(C(C)(C)C)cc2)Cc2ccc(C(F)(F)F)nc2N3)no1
2. CC(C)(C)c1ccc(S(=O)(=O)N2Cc3ccc(C(F)(F)F)nc3Nc3cccc(-c4noc(C(C)(C)O)n4)c32)cc1
3. CC(C)(O)c1nc(-c2cccc3c2N(S(=O)(=O)c2ccc(C(F)(F)F)cc2)Cc2ccc(C(F)(F)F)nc2N3)no1
4. CC(C)c1ccc(S(=O)(=O)N2Cc3ccc(C(F)(F)F)nc3Nc3cccc(-c4noc(C(C)(C)O)n4)c32)cc1
5. Cc1ccc2c(c1C)N(S(=O)(=O)c1ccc(C(C)(C)C)cc1)Cc1ccc(C(F)(F)F)nc1N2
6. C[C@H](O)c1nc(-c2cccc3c2N(S(=O)(=O)c2ccc(C(C)(C)C)cc2)Cc2ccc(C(F)(F)F)nc2N3)no1
7. CC(C)(C)c1ccc(S(=O)(=O)N2Cc3ccc(C(F)(F)F)nc3Nc3cccc(-c4noc(=O)[nH]4)c32)cc1

18%
13%
6%
80%
42%
9%
42%

// each compound listed below needs its Activity
1. CC(C)(O)c1nc(-c2cccc3c2N(S(=O)(=O)c2ccc(OC(F)F)cc2)Cc2ccc(C(F)(F)F)nc2N3)no1
2. CC(C)(C)c1ccc(S(=O)(=O)N2Cc3ccc(C(F)(F)F)nc3Nc3cccc(-c4cccnc4)c32)cc1

["22%", "77%"]
